All values here come from ChEMBL document CHEMBL4376815.

experiment: Plasma clearance in Wistar Hannover rat at 3 mg/kg, iv by LC-MS/MS analysis; assay type: ADME, organism-based
Reported Endpoint: clearance (mL/min/kg)

Molecule: CC1(C)c2nc(-c3ccc(F)cc3)c(Nc3ccc(F)cc3)n2CCN1C(=O)CN [GANAPLACIDE]
Experimental Value: 90

----------
assay: in vivo; details: mouse, po, 24.6 mg/kg
Description: Half life in mouse at 24.6 mg/kg, po and measured up to 24 hrs by LC/MS analysis

Molecule: C[C@H]1Cc2c([nH]c3cc(Cl)c(F)cc23)[C@@]2(N1)C(=O)Nc1ccc(Cl)cc12 [CIPARGAMIN]
Units Symbol: h
half-life at 24 h: 10

----------
assay: Volume of distribution in rat; format: ADME; conditions: in vivo

Molecule: CS(=O)(=O)c1ccc(-c2cnc(N)c(-c3ccc(C(F)(F)F)nc3)c2)cc1 [MMV-048]
Vd: 1.3 to 3 L/kg

----------
test: Cmax in human at 150 mg, po for 3 days and measured on day 1 by LC-MS/MS analysis; details: in vivo

Molecule: C[C@H]1Cc2c([nH]c3cc(Cl)c(F)cc23)[C@@]2(N1)C(=O)Nc1ccc(Cl)cc12 [CIPARGAMIN]
Units Symbol: µg/mL
Cmax: 1.17

----------
experiment: Volume of distribution in Beagle dog at 1 mg/kg, iv by LC-MS/MS analysis; format: ADME, organism-based, Canis lupus familiaris; conditions: in vivo
Reported Endpoint: Vd (L/kg)

Smiles Repr: C[C@H]1Cc2c([nH]c3cc(Cl)c(F)cc23)[C@@]2(N1)C(=O)Nc1ccc(Cl)cc12
Reported Endpoint: Vd
Experimental Value: 2.17

----------
test: Half life in Wistar Hannover rat at 3 mg/kg, iv by LC-MS/MS analysis; assay type: ADME, organism-based; conditions: in vivo
Reported Endpoint: half-life

Compound: CC1(C)c2nc(-c3ccc(F)cc3)c(Nc3ccc(F)cc3)n2CCN1C(=O)CN [GANAPLACIDE]
Reported Endpoint: half-life
Experimental Value: 6.6 h

----------
assay: Half life in Beagle dog at 1 mg/kg, iv by LC-MS analysis; type: ADME, organism-based, Canis lupus familiaris; details: in vivo
Reported Endpoint: half-life

Smiles Repr: Cc1cc(Nc2ccc(S(F)(F)(F)(F)F)cc2)n2nc(C(C)(F)F)nc2n1
Experimental Value: 10 to 45 h

----------
Tmax listing for selected compounds.
assay: Tmax in human at 25 to 1200 mg, po measured up to 480 hrs by HPLC-MS/MS analysis; format: ADME, organism-based; conditions: in vivo
Reported Endpoint: Tmax

Smiles Repr: Cc1cc(Nc2ccc(S(F)(F)(F)(F)F)cc2)n2nc(C(C)(F)F)nc2n1
Experimental Value: 1.5 to 4 h

Smiles Repr: CC(F)(F)c1nc2nc(CO)cc(Nc3ccc(S(F)(F)(F)(F)F)cc3)n2n1
Experimental Value: 95 to 143 h

----------
assay: Half life in monkey at 1 mg/kg, iv by LC-MS analysis; type: ADME, organism-based, Macaca mulatta; conditions: rhesus monkey, in vivo
Reported Endpoint: half-life

Smiles Repr: Cc1cc(Nc2ccc(S(F)(F)(F)(F)F)cc2)n2nc(C(C)(F)F)nc2n1
Reported Endpoint: half-life
Experimental Value: 600 to 2700 min

----------
experiment: Volume of distribution at steady state in Wistar Hannover rat at 3 mg/kg, iv by LC-MS/MS analysis; type: ADME, organism-based; settings: in vivo, read-out: Vdss

Molecule: CC1(C)c2nc(-c3ccc(F)cc3)c(Nc3ccc(F)cc3)n2CCN1C(=O)CN [GANAPLACIDE]
Vd [L/kg]: 29.5

----------
experiment: Tmax in human at 10 to 1200 mg and measured up to 360 hrs by LC-MS/MS method; type: ADME; details: in vivo

Compound: CC1(C)c2nc(-c3ccc(F)cc3)c(Nc3ccc(F)cc3)n2CCN1C(=O)CN [GANAPLACIDE]
Tmax: 1 to 6 h

----------
target: Voltage-dependent L-type calcium channel subunit alpha-1C (Homo sapiens, UniProt Q13936); assay: Inhibition of Cav1.2 (unknown origin)
Sequence (Q13936 whole entry): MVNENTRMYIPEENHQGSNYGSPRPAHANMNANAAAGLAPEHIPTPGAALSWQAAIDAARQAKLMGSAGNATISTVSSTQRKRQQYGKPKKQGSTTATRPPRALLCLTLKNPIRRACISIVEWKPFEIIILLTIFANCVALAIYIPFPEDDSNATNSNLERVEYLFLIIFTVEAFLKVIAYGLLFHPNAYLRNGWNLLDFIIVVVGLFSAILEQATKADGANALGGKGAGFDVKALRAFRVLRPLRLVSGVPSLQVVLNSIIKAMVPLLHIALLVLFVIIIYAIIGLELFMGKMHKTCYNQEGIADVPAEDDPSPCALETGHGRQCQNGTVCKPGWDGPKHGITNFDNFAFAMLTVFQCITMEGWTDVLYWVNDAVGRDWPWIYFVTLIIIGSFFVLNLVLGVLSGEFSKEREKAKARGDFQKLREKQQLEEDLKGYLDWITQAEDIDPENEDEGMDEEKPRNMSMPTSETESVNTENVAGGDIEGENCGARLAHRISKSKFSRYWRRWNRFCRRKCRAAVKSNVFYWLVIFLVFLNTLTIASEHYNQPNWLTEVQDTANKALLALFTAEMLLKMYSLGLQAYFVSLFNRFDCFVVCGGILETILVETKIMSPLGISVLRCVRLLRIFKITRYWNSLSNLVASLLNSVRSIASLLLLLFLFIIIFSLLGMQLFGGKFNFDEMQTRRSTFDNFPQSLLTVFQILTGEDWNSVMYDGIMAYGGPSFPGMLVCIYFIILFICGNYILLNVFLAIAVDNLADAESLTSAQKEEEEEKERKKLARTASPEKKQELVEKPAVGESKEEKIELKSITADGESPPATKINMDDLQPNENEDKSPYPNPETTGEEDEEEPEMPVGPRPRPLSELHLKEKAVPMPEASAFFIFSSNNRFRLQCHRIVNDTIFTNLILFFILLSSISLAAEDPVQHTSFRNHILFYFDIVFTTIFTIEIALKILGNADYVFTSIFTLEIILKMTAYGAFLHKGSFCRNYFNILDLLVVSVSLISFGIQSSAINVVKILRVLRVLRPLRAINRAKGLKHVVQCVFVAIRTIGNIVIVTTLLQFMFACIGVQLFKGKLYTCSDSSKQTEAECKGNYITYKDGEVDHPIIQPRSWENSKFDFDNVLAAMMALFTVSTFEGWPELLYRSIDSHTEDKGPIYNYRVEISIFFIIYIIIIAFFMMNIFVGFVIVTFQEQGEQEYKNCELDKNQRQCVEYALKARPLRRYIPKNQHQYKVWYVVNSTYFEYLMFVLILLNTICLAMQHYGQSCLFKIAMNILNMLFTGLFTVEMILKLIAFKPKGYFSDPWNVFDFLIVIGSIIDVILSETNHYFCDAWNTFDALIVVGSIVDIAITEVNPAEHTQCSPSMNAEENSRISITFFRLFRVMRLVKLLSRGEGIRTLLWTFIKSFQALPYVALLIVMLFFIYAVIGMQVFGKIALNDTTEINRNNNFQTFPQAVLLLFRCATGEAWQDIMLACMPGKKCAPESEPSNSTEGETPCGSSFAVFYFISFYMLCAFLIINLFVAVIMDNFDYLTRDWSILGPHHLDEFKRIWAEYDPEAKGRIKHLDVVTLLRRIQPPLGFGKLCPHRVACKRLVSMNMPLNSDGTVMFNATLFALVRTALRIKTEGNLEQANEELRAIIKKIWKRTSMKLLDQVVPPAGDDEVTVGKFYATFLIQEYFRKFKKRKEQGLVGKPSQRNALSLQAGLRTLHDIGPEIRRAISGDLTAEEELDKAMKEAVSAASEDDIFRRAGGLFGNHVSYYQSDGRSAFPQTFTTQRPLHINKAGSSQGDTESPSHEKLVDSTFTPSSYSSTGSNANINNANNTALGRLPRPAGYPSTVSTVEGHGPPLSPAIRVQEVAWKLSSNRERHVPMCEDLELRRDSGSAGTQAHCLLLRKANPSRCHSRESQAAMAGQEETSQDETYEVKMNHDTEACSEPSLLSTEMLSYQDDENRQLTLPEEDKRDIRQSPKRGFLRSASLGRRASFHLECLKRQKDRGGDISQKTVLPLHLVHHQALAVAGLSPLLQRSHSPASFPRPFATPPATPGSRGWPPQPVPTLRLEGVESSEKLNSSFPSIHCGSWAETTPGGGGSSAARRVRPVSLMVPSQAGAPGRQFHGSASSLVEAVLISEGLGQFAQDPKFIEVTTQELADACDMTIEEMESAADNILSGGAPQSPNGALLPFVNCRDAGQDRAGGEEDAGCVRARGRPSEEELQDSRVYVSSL

Smiles Repr: CS(=O)(=O)c1ccc(-c2cnc(N)c(-c3ccc(C(F)(F)F)nc3)c2)cc1
IC50: > 10 µM

----------
experiment: Plasma clearance in monkey at 1 mg/kg, iv by LC-MS analysis; type: ADME, organism-based, Macaca mulatta; details: rhesus monkey
Reported Endpoint: clearance

Smiles Repr: Cc1cc(Nc2ccc(S(F)(F)(F)(F)F)cc2)n2nc(C(C)(F)F)nc2n1
Experimental Value: 0.367 to 0.9 mL/min/kg

----------
test: Inhibition of Plasmodium vivax DHODH expressed in Escherichia coli using L-dihydroorotate as substrate
pEC50: −log10 of the molar value.
Reported Endpoint: pEC50

Smiles Repr: Cc1cc(Nc2ccc(S(F)(F)(F)(F)F)cc2)n2nc(C(C)(F)F)nc2n1
Experimental Value: 7.70

----------
assay: Plasma clearance in mouse; assay type: ADME, organism-based
Reported Endpoint: clearance (mL/min/kg)

Smiles Repr: CS(=O)(=O)c1ccc(-c2cnc(N)c(-c3ccc(C(F)(F)F)nc3)c2)cc1
Reported Endpoint: clearance
Experimental Value: 3

----------
test: in vivo; settings: rat, po, 23.7 mg/kg
Description: Half life in rat at 23.7 mg/kg, po and measured up to 24 hrs by LC/MS analysis
Reported Endpoint: half-life at 24 h (h)

Compound: C[C@H]1Cc2c([nH]c3cc(Cl)c(F)cc23)[C@@]2(N1)C(=O)Nc1ccc(Cl)cc12 [CIPARGAMIN]
Reported Endpoint: half-life at 24 h
Experimental Value: 27.7

----------
test: AUC in human at 5 to 120 mg,po in fed condition; assay type: ADME; settings: in vivo

Smiles Repr: CS(=O)(=O)c1ccc(-c2cnc(N)c(-c3ccc(C(F)(F)F)nc3)c2)cc1
Units Symbol: ng·h/mL
AUC: 29000

----------
target: Cytochrome P450 3A4 (Homo sapiens)
Sequence (P08684 whole entry): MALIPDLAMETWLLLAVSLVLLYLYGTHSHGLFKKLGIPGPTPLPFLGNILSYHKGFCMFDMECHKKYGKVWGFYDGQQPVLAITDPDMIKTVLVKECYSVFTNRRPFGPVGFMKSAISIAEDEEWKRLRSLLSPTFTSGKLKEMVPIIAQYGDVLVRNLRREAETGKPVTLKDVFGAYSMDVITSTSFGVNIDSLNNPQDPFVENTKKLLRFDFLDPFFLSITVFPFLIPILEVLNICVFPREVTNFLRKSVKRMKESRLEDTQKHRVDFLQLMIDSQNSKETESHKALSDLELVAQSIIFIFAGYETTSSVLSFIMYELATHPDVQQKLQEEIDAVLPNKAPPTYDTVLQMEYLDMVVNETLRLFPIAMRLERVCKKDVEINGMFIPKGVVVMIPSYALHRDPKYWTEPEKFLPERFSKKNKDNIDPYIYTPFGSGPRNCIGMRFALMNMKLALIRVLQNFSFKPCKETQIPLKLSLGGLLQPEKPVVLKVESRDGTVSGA
pKi: −log10 of the molar value.

Smiles Repr: Clc1ccc2c(N3CCN(CCCN4CCN(c5ccnc6cc(Cl)ccc56)CC4)CC3)ccnc2c1
pKi: 7.05

----------
experiment: Tmax in human at […], po and measured up to 96 to 144 hrs by LC-MS/MS analysis; assay type: ADME, organism-based; settings: in vivo
Reported Endpoint: Tmax (h)

Smiles Repr: C[C@H]1Cc2c([nH]c3cc(Cl)c(F)cc23)[C@@]2(N1)C(=O)Nc1ccc(Cl)cc12
Experimental Value: 8

----------
experiment: Tmax in Beagle dog at 3 mg/kg, po by LC-MS/MS analysis; type: ADME, organism-based, Canis lupus familiaris; details: in vivo
Reported Endpoint: Tmax (h)

Smiles Repr: C[C@H]1Cc2c([nH]c3cc(Cl)c(F)cc23)[C@@]2(N1)C(=O)Nc1ccc(Cl)cc12
Reported Endpoint: Tmax
Experimental Value: 1.7

----------
assay: Drug recovery in feces of po dosed human by LC-MS/MS analysis; type: ADME, organism-based; conditions: faeces, read-out: Drug recovery

Smiles Repr: C[C@H]1Cc2c([nH]c3cc(Cl)c(F)cc23)-c2c3cc(Cl)c(O)cc3nc(=O)n21
Units Symbol: %
dose excreted: 36
--
Smiles Repr: C[C@H]1Cc2c([nH]c3cc(Cl)c(F)cc23)[C@@]2(N1)C(=O)Nc1ccc(Cl)cc12
Units Symbol: %
dose excreted: 32

----------
test: Clearance in Wistar Hannover rat at 5 mg/kg, iv by LC-MS/MS analysis; format: ADME, organism-based; conditions: in vivo
Reported Endpoint: clearance (mL/min/kg)

Smiles Repr: C[C@H]1Cc2c([nH]c3cc(Cl)c(F)cc23)[C@@]2(N1)C(=O)Nc1ccc(Cl)cc12
Reported Endpoint: clearance
Units Symbol: mL/min/kg
Experimental Value: 4.2

----------
tested on: Plasmodium cynomolgi; experiment: Antimalarial activity against hypnozoites stage Plasmodium cynomolgi infected in primary rhesus monkey hepatocytes measured on day 5; assay type: functional, organism-based; conditions: 120 h
Reported Endpoint: EC50

Compound: CS(=O)(=O)c1ccc(-c2cnc(N)c(-c3ccc(C(F)(F)F)nc3)c2)cc1 [MMV-048]
Tested System: Plasmodium cynomolgi
Reported Endpoint: EC50
Experimental Value: > 10 µM

----------
test: Half life in rat; assay type: ADME; settings: in vivo
Reported Endpoint: half-life (h)

Smiles Repr: CS(=O)(=O)c1ccc(-c2cnc(N)c(-c3ccc(C(F)(F)F)nc3)c2)cc1
Units Symbol: h
Experimental Value: 9.2

----------
test: Plasma clearance in Beagle dog at 1 mg/kg, iv by LC-MS analysis; type: ADME, organism-based, Canis lupus familiaris

Smiles Repr: Cc1cc(Nc2ccc(S(F)(F)(F)(F)F)cc2)n2nc(C(C)(F)F)nc2n1
clearance: 0.367 to 0.9 mL/min/kg

----------
assay: AUC (0 to infinity) in human at 5 to 120 mg,po; assay type: ADME; settings: in vivo

Compound: CS(=O)(=O)c1ccc(-c2cnc(N)c(-c3ccc(C(F)(F)F)nc3)c2)cc1 [MMV-048]
AUC(0-inf): 2140 to 156000 ng·h/mL

----------
assay: Clearance in Beagle dog at 1 mg/kg, iv by LC-MS/MS analysis; type: ADME, organism-based, Canis lupus familiaris; details: in vivo

Compound: C[C@H]1Cc2c([nH]c3cc(Cl)c(F)cc23)[C@@]2(N1)C(=O)Nc1ccc(Cl)cc12 [CIPARGAMIN]
clearance: 3.35 mL/min/kg
